molecular target: SST5 (Homo sapiens, UniProt P35346); experiment: Hit Hunter cAMP XS+ assay, SST5 activation via Gi (reduction of forskolin-stimulated cAMP); format: cell-based; details: read-out: SST5 (EMax)
Sequence (P35346 whole entry): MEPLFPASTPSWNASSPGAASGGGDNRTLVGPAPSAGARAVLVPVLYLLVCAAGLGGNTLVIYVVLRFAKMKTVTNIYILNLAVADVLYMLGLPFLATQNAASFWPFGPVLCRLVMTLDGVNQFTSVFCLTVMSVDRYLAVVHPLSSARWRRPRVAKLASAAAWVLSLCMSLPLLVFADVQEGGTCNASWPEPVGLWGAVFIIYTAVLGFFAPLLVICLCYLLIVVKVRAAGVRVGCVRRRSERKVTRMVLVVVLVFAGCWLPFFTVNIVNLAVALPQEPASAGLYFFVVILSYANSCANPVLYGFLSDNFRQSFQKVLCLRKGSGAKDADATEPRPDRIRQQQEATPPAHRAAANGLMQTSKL
*1 amine or outer side, *2 acyl side, *3 side chain or, on linkers, in order; H or OH if unused. Where a SMILES comes first, the peptide text is derived from it. Side-chain parts run from the residue outwards. [ ]: non-standard residue; d: D form. The star is where a group is joined. Ala(piperidin-4-yl) = O=C([C@H](CC1CCN([*:3])CC1)N[*:1])[*:2]; dTrp(4-OMe) = COc1cccc2[nH]cc(C[C@@H](N)C(=O)O)c12; dTrp(5-OMe) = COc1ccc2[nH]cc(C[C@@H](N)C(=O)O)c2c1; Ala(piperazin-1-yl) = N[C@@H](CN1CCNCC1)C(=O)O; Morpholine(3S-CO) = O=C(O)[C@@H]1COCCN1; Ethylenediamine = C(CN[*:2])N[*:1]; d(hPhe) = N[C@H](CCc1ccccc1)C(=O)O; Hyp = O=C(O)[C@@H]1C[C@@H](O)CN1; hPhe = N[C@@H](CCc1ccccc1)C(=O)O; 3Pal = N[C@@H](Cc1cccnc1)C(=O)O; Tic = O=C(O)[C@@H]1Cc2ccccc2CN1; Phg = N[C@H](C(=O)O)c1ccccc1; CO = O=C([*:1])[*:2]; Bn = c1ccc(C*)cc1; X1 = C1CCC(C*)C1
measurementKind: Emax (%)
Output spec: scalar in %, unitless text.

Query: Which Emax is listed for COc1ccc2[nH]cc(C[C@H]3NC(=O)[C@H](c4ccccc4)NC(=O)[C@@H]4C[C@@H](OC(=O)NCCN)CN4C(=O)[C@H](Cc4ccccc4)NC(=O)[C@H](Cc4ccc(OCc5ccccc5)cc4)NC(=O)[C@H](CC4CCNCC4)NC3=O)c2c1 [Example 5] (cyclo(F[Hyp]([CO-Ethylenediamine])[Phg][dTrp(5-OMe)][Ala(piperidin-4-yl)]Y(Bn))) ?
Response: 98.7

Query: Which Emax is listed for COc1cccc2[nH]cc(C[C@H]3NC(=O)[C@@H](CCc4ccccc4)NC(=O)[C@@H]4COCCN4C(=O)[C@@H]4Cc5ccccc5CN4C(=O)[C@H](Cc4ccc(OCc5ccccc5)cc4)NC(=O)[C@H](CN4CCNCC4)NC3=O)c12 [Example 63] (cyclo([Tic][Morpholine(3S-CO)][d(hPhe)][dTrp(4-OMe)][Ala(piperazin-1-yl)]Y(Bn))) ?
Response: 104

Query: Which Emax is listed for NCCNC(=O)O[C@@H]1C[C@H]2C(=O)N[C@@H](CCc3ccccc3)C(=O)N[C@H](Cc3c[nH]c4ccccc34)C(=O)N[C@@H](CC3CCNCC3)C(=O)N[C@@H](Cc3ccc(OCC4CCCC4)cc3)C(=O)N[C@@H](Cc3cccnc3)C(=O)N2C1 [Example 49] (cyclo([3Pal][Hyp]([CO-Ethylenediamine])[hPhe][dW][Ala(piperidin-4-yl)]Y(X1))) ?
Response: 103

* * *

Target: SST5 (Homo sapiens, UniProt P35346)
Assay: Hit Hunter cAMP XS+ assay, SST5 activation via Gi (reduction of forskolin-stimulated cAMP)
Assay type: cell-based
Conditions: read-out: SST5 (EMax)
Method: A Hit Hunter® cAMP XS+ assay was used to monitor activation of the SST2 and SST5 via the Gi G protein. Cells were pre-stimulated with forskolin to elicit a cAMP response and the potency and efficacy of somatostatin agonists to reduce cAMP was measured. […] Signal was detected through incubation with 20 μL cAMP XS+ED/CL lysis cocktail ([…]; RT) followed by incubation with […] cAMP XS+EA reagent (180 min; RT). […]
*1 amine or outer side, *2 acyl side, *3 side chain or, on linkers, in order; H or OH if unused. Where a SMILES comes first, the peptide text is derived from it. Side-chain parts run from the residue outwards. [ ]: non-standard residue; d: D form. The star is where a group is joined. Ala(piperidin-4-yl) = O=C([C@H](CC1CCN([*:3])CC1)N[*:1])[*:2]; X2 = O=C([C@@H]1C[C@@H](Oc2ccncc2)CN1[*:1])[*:2]; X8 = COc1cc2c(cc1OC)CN([*:1])[C@H](C(=O)[*:2])C2; dTrp(5-Me) = Cc1ccc2[nH]cc(C[C@@H](N)C(=O)O)c2c1; Ala(piperazin-1-yl) = N[C@@H](CN1CCNCC1)C(=O)O; X7 = NCCOC(=O)N1CCN([*:1])[C@H](C(=O)[*:2])C1; Ethylenediamine = C(CN[*:2])N[*:1]; d(hPhe) = N[C@H](CCc1ccccc1)C(=O)O; Hyp = O=C(O)[C@@H]1C[C@@H](O)CN1; hPhe = N[C@@H](CCc1ccccc1)C(=O)O; 3Pal = N[C@@H](Cc1cccnc1)C(=O)O; Tic = O=C(O)[C@@H]1Cc2ccccc2CN1; Phg = N[C@H](C(=O)O)c1ccccc1; CO = O=C([*:1])[*:2]; Bn = c1ccc(C*)cc1
measurementKind: Emax (%)
Output spec: scalar in %, unitless text.

Query: Which Emax is listed for NCCNC(=O)O[C@@H]1C[C@H]2C(=O)N[C@@H](CCc3ccccc3)C(=O)N[C@@H](Cc3c[nH]c4ccccc34)C(=O)N[C@@H](CC3CCNCC3)C(=O)N[C@@H](Cc3ccc(OCc4ccccc4)cc3)C(=O)N[C@@H](Cc3ccccc3)C(=O)N2C1 [Example 29] (cyclo(F[Hyp]([CO-Ethylenediamine])[hPhe]W[Ala(piperidin-4-yl)]Y(Bn))) ?
Response: 100

Query: Which Emax is listed for O=C1N[C@@H](Cc2ccc(OCc3ccccc3)cc2)C(=O)N[C@@H](Cc2cccnc2)C(=O)N2C[C@H](Oc3ccncc3)C[C@H]2C(=O)N[C@H](CCc2ccccc2)C(=O)N[C@@H](Cc2c[nH]c3ccccc23)C(=O)N[C@H]1CC1CCNCC1 [Example 24] (cyclo([3Pal][X2][d(hPhe)]W[Ala(piperidin-4-yl)]Y(Bn))) ?
Response: 102

Query: Which Emax is listed for NCCNC(=O)O[C@@H]1C[C@H]2C(=O)N[C@H](CCc3ccccc3)C(=O)N[C@H](Cc3c[nH]c4ccccc34)C(=O)N[C@@H](CN3CCNCC3)C(=O)N[C@@H](Cc3ccc(OCc4ccccc4)cc3)C(=O)N[C@@H](Cc3cccnc3)C(=O)N2C1 [Example 16] (cyclo([3Pal][Hyp]([CO-Ethylenediamine])[d(hPhe)][dW][Ala(piperazin-1-yl)]Y(Bn))) ?
Response: 100

Query: Which Emax is listed for Cc1ccc2[nH]cc(C[C@H]3NC(=O)[C@H](c4ccccc4)NC(=O)[C@@H]4C[C@@H](OC(=O)NCCN)CN4C(=O)[C@H](Cc4ccccc4)NC(=O)[C@H](Cc4ccc(OCc5ccccc5)cc4)NC(=O)[C@H](CC4CCNCC4)NC3=O)c2c1 [Example 13] (cyclo(F[Hyp]([CO-Ethylenediamine])[Phg][dTrp(5-Me)][Ala(piperidin-4-yl)]Y(Bn))) ?
Response: 98.7

Query: Which Emax is listed for COc1cc2c(cc1OC)CN1C(=O)[C@H](Cc3ccc(OCc4ccccc4)cc3)NC(=O)[C@H](CC3CCNCC3)NC(=O)[C@@H](Cc3c[nH]c4ccccc34)NC(=O)[C@H](CCc3ccccc3)NC(=O)[C@@H]3C[C@@H](OC(=O)NCCN)CN3C(=O)[C@@H]1C2 [Example 66] (cyclo([Hyp]([CO-Ethylenediamine])[hPhe][dW][Ala(piperidin-4-yl)]Y(Bn)[X8])) ?
Response: 103

Query: Which Emax is listed for NCCOC(=O)N1CCN2C(=O)[C@@H]3Cc4ccccc4CN3C(=O)[C@H](Cc3ccc(OCc4ccccc4)cc3)NC(=O)[C@H](CN3CCNCC3)NC(=O)[C@@H](Cc3c[nH]c4ccccc34)NC(=O)[C@H](CCc3ccccc3)NC(=O)[C@@H]2C1 [Example 72] (cyclo([Tic][X7][hPhe][dW][Ala(piperazin-1-yl)]Y(Bn))) ?
Response: 101

* * *

molecular target: SST5 (Homo sapiens); assay: Hit Hunter cAMP XS+ assay, SST5 activation via Gi (reduction of forskolin-stimulated cAMP); format: cell-based; settings: reduction of forskolin-stimulated cAMP; 4-parameter logistic fit; read-out: SST5 pEC50 (converted)
*1 amine or outer side, *2 acyl side, *3 side chain or, on linkers, in order; H or OH if unused. Where a SMILES comes first, the peptide text is derived from it. Side-chain parts run from the residue outwards. [ ]: non-standard residue; d: D form. The star is where a group is joined. Ala(piperidin-4-yl) = O=C([C@H](CC1CCN([*:3])CC1)N[*:1])[*:2]; dTrp(5-OMe) = COc1ccc2[nH]cc(C[C@@H](N)C(=O)O)c2c1; Ala(piperazin-1-yl) = N[C@@H](CN1CCNCC1)C(=O)O; X7 = NCCOC(=O)N1CCN([*:1])[C@H](C(=O)[*:2])C1; Phe(3-OMe) = COc1cccc(C[C@H](N)C(=O)O)c1; Morpholine(3S-CO) = O=C(O)[C@@H]1COCCN1; Ethylenediamine = C(CN[*:2])N[*:1]; d(hPhe) = N[C@H](CCc1ccccc1)C(=O)O; Hyp = O=C(O)[C@@H]1C[C@@H](O)CN1; hPhe = N[C@@H](CCc1ccccc1)C(=O)O; 3Pal = N[C@@H](Cc1cccnc1)C(=O)O; Tic = O=C(O)[C@@H]1Cc2ccccc2CN1; Benzyl(4-Cl) = Clc1ccc(C*)cc1; Phg = N[C@H](C(=O)O)c1ccccc1; CO = O=C([*:1])[*:2]; Bn = c1ccc(C*)cc1
Please provide measured EC50 for the entries that follow.
Output spec: scalar in nM, unitless text.

Query: Which EC50 is listed for NCCNC(=O)O[C@@H]1C[C@H]2C(=O)N[C@H](CCc3ccccc3)C(=O)N[C@H](Cc3c[nH]c4ccccc34)C(=O)N[C@@H](CN3CCNCC3)C(=O)N[C@@H](Cc3ccc(OCc4ccc(Cl)cc4)cc3)C(=O)N[C@@H](Cc3cccnc3)C(=O)N2C1 [Example 58] (cyclo([3Pal][Hyp]([CO-Ethylenediamine])[d(hPhe)][dW][Ala(piperazin-1-yl)]Y(Benzyl(4-Cl)))) ?
Response: 15.8

Query: Which EC50 is listed for COc1cccc(C[C@@H]2NC(=O)[C@H](Cc3ccc(OCc4ccccc4)cc3)NC(=O)[C@H](CC3CCNCC3)NC(=O)[C@@H](Cc3c[nH]c4ccccc34)NC(=O)[C@H](c3ccccc3)NC(=O)[C@@H]3C[C@@H](OC(=O)NCCN)CN3C2=O)c1 [Example 12] (cyclo([Hyp]([CO-Ethylenediamine])[Phg][dW][Ala(piperidin-4-yl)]Y(Bn)[Phe(3-OMe)])) ?
Response: 0.794

Query: Which EC50 is listed for O=C1N[C@@H](Cc2ccc(OCc3ccccc3)cc2)C(=O)N2Cc3ccccc3C[C@H]2C(=O)N2CCOC[C@H]2C(=O)N[C@@H](CCc2ccccc2)C(=O)N[C@H](Cc2c[nH]c3ccccc23)C(=O)N[C@H]1CC1CCNCC1 [Example 45] (cyclo([Tic][Morpholine(3S-CO)][hPhe][dW][Ala(piperidin-4-yl)]Y(Bn))) ?
Response: 0.398

Query: Which EC50 is listed for NCCNC(=O)O[C@@H]1C[C@H]2C(=O)N[C@@H](c3ccccc3)C(=O)N[C@H](Cc3c[nH]c4ccccc34)C(=O)N[C@@H](CC3CCNCC3)C(=O)N[C@@H](Cc3ccc(OCc4ccc(Cl)cc4)cc3)C(=O)N[C@@H](Cc3ccccc3)C(=O)N2C1 [Example 6] (cyclo(F[Hyp]([CO-Ethylenediamine])[Phg][dW][Ala(piperidin-4-yl)]Y(Benzyl(4-Cl)))) ?
Response: 1.26

Query: Which EC50 is listed for COc1ccc2[nH]cc(C[C@H]3NC(=O)[C@H](CCc4ccccc4)NC(=O)[C@@H]4C[C@@H](OC(=O)NCCN)CN4C(=O)[C@H](Cc4cccnc4)NC(=O)[C@H](Cc4ccc(OCc5ccccc5)cc4)NC(=O)[C@H](CC4CCNCC4)NC3=O)c2c1 [Example 39] (cyclo([3Pal][Hyp]([CO-Ethylenediamine])[hPhe][dTrp(5-OMe)][Ala(piperidin-4-yl)]Y(Bn))) ?
Response: 0.398

Query: Which EC50 is listed for NCCNC(=O)O[C@@H]1C[C@H]2C(=O)N[C@@H](CCc3ccccc3)C(=O)N[C@H](Cc3c[nH]c4ccccc34)C(=O)N[C@@H](CC3CCNCC3)C(=O)N[C@@H](Cc3ccc(OCc4ccccc4)cc3)C(=O)N3Cc4ccccc4C[C@H]3C(=O)N2C1 [Example 17] (cyclo([Hyp]([CO-Ethylenediamine])[hPhe][dW][Ala(piperidin-4-yl)]Y(Bn)[Tic])) ?
Response: 0.501

Query: Which EC50 is listed for NCCOC(=O)N1CCN2C(=O)[C@@H]3Cc4ccccc4CN3C(=O)[C@H](Cc3ccc(OCc4ccccc4)cc3)NC(=O)[C@H](CN3CCNCC3)NC(=O)[C@@H](Cc3c[nH]c4ccccc34)NC(=O)[C@H](CCc3ccccc3)NC(=O)[C@@H]2C1 [Example 72] (cyclo([Tic][X7][hPhe][dW][Ala(piperazin-1-yl)]Y(Bn))) ?
Response: 6.31

Query: Which EC50 is listed for O=C1N[C@@H](Cc2ccc(OCc3ccccc3)cc2)C(=O)N2Cc3ccccc3C[C@H]2C(=O)N2CCOC[C@H]2C(=O)N[C@H](CCc2ccccc2)C(=O)N[C@H](Cc2c[nH]c3ccccc23)C(=O)N[C@H]1CC1CCNCC1 [Example 62] (cyclo([Tic][Morpholine(3S-CO)][d(hPhe)][dW][Ala(piperidin-4-yl)]Y(Bn))) ?
Response: 3.16

Query: Which EC50 is listed for NCCNC(=O)O[C@@H]1C[C@H]2C(=O)N[C@@H](CCc3ccccc3)C(=O)N[C@@H](Cc3c[nH]c4ccccc34)C(=O)N[C@@H](CN3CCNCC3)C(=O)N[C@@H](Cc3ccc(OCc4ccccc4)cc3)C(=O)N3Cc4ccccc4C[C@H]3C(=O)N2C1 [Example 36] (cyclo([Hyp]([CO-Ethylenediamine])[hPhe]W[Ala(piperazin-1-yl)]Y(Bn)[Tic])) ?
Response: 1.26
